# tested system: human orexin-2 receptor (Homo sapiens, UniProt O43614)
# Construct: expressed in transfected cells; host or cells: CHO cells (grown under G418 selection)
# Sequence (O43614 whole entry): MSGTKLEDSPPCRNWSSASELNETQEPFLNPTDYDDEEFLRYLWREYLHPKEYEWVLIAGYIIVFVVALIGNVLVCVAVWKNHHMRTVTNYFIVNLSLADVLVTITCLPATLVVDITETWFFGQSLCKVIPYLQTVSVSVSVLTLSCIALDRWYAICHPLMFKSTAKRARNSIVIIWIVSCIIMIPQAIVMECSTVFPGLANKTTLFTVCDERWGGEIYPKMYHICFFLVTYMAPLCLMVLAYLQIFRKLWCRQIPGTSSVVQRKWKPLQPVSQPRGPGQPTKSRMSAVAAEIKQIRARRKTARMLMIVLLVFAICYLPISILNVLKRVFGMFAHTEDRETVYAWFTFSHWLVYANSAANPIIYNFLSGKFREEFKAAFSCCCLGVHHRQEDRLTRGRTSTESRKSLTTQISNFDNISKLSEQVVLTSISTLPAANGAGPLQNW
# run description: FLIPR Ca2+ flux assay, OX2R
# Type: cell-based
# condition parameters: OX1R FLIPR / OX2R FLIPR
Known Fold Selective of a selection of compounds

{"compound": "CO[C@@H]1CCN(c2ncccc2C(=O)N2CC3CC(C2)N(c2nc(C)cc(C)n2)C3)C1 (stereo partly shown)", "tested system": "human orexin-2 receptor (Homo sapiens, UniProt O43614)", "Fold Selective": ">111"}

Recall the reported Fold Selective of COc1ccc(C(=O)N2CC3CC(C2)N(c2nc(C)cc(C)n2)C3)c(-n2nccn2)n1 (stereo not shown) when tested on human orexin-2 receptor (Homo sapiens, UniProt O43614). >85

Please tell me the measured Fold Selective for Cc1cc(C)nc(N2CC3CC2CN(C(=O)c2cccnc2CC(F)(F)F)C3)n1 (stereo not shown) ; system: human orexin-2 receptor (Homo sapiens, UniProt O43614). >172

Find Fold Selective for Cc1cc(C)nc(N2CC3CC2CN(C(=O)c2cccnc2-n2nccn2)C3)n1 (stereo not shown) on human orexin-2 receptor (Homo sapiens, UniProt O43614) and write it down. >111
